# credit: the supplement of paper PMC10065799

- experimental-target: SHP2-C SH2
- experiment-notes: SH2 binding enrichment of the phosphorylated peptide, bacterial display (enrichment ratio); higher = better substrate or ligand; peptides without Tyr show the background
experimental-readout: SH2 binding enrichment

# annotated cases, reported SH2 binding enrichment shown
> print(dat)
                     input.sequence    experimental.readout  assay.value
1       RAFSWYQHQRA [NDST1_Y714_YF]  SH2 binding enrichment         1.23
2   FEAMEYLESKQ [BTK_Y511_C506Y_YF]  SH2 binding enrichment        0.635
3    GHLYAYNWISI [BEST1_Y227_D228N]  SH2 binding enrichment        0.816
4           NDKLRYEVSSP [CDH13_Y66]  SH2 binding enrichment        0.567
5  KIDAKYKKKIK [WDR19_Y1230_E1235K]  SH2 binding enrichment        0.906

I. ESDFTYSSSFE [SRPK2_Y427_YF]
II. LKLWDYSRGRC [WDR5B_Y239]
**Q:** Between the entries labelled I and II , which has a larger SH2 binding enrichment value on record? Choose, then provide that item's label.
**A:** I
(I: 0.747, II: 0.501)

----------
- experimental-target: Fes (UniProt P07332)
- Sequence (P07332 whole entry, looked up): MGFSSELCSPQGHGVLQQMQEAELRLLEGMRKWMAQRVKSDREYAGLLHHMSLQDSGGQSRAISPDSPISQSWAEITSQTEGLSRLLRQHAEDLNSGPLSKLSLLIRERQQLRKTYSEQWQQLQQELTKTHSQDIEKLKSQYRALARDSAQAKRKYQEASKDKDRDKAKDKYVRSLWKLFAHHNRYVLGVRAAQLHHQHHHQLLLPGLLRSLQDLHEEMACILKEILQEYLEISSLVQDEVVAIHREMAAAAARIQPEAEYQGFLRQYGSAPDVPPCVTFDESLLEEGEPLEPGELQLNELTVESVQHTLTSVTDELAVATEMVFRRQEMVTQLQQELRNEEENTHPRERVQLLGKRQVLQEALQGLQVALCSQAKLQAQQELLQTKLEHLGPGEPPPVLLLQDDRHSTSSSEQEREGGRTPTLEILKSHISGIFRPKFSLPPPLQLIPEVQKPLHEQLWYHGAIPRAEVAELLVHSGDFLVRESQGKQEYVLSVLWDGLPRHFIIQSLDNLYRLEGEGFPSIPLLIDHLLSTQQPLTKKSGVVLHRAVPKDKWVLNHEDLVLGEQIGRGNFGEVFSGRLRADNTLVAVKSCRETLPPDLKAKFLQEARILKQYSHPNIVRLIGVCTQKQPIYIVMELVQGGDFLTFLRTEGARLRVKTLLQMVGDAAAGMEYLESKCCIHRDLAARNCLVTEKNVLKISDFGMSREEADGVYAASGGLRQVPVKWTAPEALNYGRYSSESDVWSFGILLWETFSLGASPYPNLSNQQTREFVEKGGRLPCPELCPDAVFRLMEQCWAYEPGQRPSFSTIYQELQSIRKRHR
- experiment-notes: phosphorylation enrichment, bacterial display (enrichment ratio); higher = better substrate or ligand; peptides without Tyr show the background
experimental-readout: phosphorylation enrichment
The response must contain the number and no unit.

# annotated cases, reported phosphorylation enrichment shown
> print(dat)
                     input.sequence  assay.value
1  TQPSPYAVYLF [RPGRIP1_Y823_R827L]         1.68
2        TQNGVYSAANF [DDX5_Y535_YF]        0.541
3  QNTGFYFDLFG [PTPN11_Y62_D61Y_YF]         2.16

**Q:** # query: phosphorylation enrichment of entry EITSHYRHLLR [ZBTB46_Y14]
**A:** 0.819

----------
- experimental-target: Grb2 SH2 (UniProt P62993)
- experiment-notes: SH2 binding enrichment of the phosphorylated peptide, bacterial display (enrichment ratio); higher = better substrate or ligand; peptides without Tyr show the background
experimental-readout: SH2 binding enrichment

> print(dat)
                       input.sequence    experimental.readout  assay.value
 1    SHMVNYQPFRK [TEX37_Y25_D24N_YF]  SH2 binding enrichment        0.766
 2         RGFDTYFGFLL [ARSB_Y165_YF]  SH2 binding enrichment        0.899
 3        SILAVYSKDNF [PANK2_Y400_YF]  SH2 binding enrichment        0.802
 4      QELRRYLESGV [MICA_Y194_K196E]  SH2 binding enrichment        0.729
 5     NREGVYTDFAP [TGFBI_Y537_V539D]  SH2 binding enrichment        0.976
 6     AGADGYDYLAP [FOXL2_Y186_G187D]  SH2 binding enrichment         0.89
 7           ATLDVYNPFET [SCAMP3_Y41]  SH2 binding enrichment        0.872
 8             LLFRVYGLESL [INSR_Y94]  SH2 binding enrichment        0.718
 9  DPADRYLTEQF [CDKL5_Y286_C291Y_YF]  SH2 binding enrichment        0.889
10     RENGPYYASYP [GDAP2_Y487_T489A]  SH2 binding enrichment        0.822
11         FTNRSYDLDYD [MYC_Y12_N11S]  SH2 binding enrichment        0.717
12      YLRTGYSIPYG [TGM1_Y370_V372I]  SH2 binding enrichment         1.01
13           DGQVNYEEFVQ [CALM1_Y139]  SH2 binding enrichment        0.784
14           DSNPIYSQIWS [FCRL3_Y662]  SH2 binding enrichment          1.1

----------
- experimental-target: FGFR3 (UniProt P22607)
- Sequence (P22607 whole entry, looked up): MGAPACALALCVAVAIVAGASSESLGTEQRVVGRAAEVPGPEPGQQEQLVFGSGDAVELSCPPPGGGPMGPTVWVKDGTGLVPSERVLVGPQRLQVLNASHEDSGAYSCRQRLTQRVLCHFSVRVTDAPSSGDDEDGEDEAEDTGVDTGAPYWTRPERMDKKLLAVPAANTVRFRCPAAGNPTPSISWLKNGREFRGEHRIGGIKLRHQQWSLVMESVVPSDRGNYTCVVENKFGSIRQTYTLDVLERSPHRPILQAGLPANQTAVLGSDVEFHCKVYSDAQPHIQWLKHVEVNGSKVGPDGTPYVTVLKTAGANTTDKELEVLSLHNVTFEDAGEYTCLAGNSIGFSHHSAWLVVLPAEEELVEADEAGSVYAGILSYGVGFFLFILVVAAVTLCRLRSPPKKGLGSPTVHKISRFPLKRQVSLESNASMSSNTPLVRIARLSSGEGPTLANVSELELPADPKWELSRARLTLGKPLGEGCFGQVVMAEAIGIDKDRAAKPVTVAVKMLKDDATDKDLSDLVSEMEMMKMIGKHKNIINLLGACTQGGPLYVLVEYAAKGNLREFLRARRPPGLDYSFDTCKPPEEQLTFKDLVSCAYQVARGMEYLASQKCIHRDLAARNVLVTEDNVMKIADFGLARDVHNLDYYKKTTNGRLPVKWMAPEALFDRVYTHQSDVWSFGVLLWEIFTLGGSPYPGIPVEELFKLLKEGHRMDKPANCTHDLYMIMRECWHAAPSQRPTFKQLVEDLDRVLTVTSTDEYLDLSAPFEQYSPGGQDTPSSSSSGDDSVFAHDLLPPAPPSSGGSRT
- experiment-notes: phosphorylation enrichment, bacterial display (enrichment ratio); higher = better substrate or ligand; peptides without Tyr show the background
experimental-readout: phosphorylation enrichment
The response must contain the number and no unit.

# annotated cases, reported phosphorylation enrichment shown
> print(dat)
                 input.sequence        experimental.readout  assay.value
1      KEELAYLKKNH [KRT14_Y248]  phosphorylation enrichment        0.515
2  TSHKGYVAFLE [CARD9_Y76_G72S]  phosphorylation enrichment        0.554

**Q:** Please tell me: phosphorylation enrichment of IRTDAYVQAMT [RPE65_Y89_R91Q] , system FGFR3 (UniProt P22607)?
**A:** 0.503

**Q:** Can you check TKDTFYKQRMF [GBA_Y451_P454R] next?
**A:** 0.391

----------
Entries and their phosphorylation enrichment values follow.
- experimental-target: Fyn (UniProt P06241)
- Sequence (P06241 whole entry, looked up): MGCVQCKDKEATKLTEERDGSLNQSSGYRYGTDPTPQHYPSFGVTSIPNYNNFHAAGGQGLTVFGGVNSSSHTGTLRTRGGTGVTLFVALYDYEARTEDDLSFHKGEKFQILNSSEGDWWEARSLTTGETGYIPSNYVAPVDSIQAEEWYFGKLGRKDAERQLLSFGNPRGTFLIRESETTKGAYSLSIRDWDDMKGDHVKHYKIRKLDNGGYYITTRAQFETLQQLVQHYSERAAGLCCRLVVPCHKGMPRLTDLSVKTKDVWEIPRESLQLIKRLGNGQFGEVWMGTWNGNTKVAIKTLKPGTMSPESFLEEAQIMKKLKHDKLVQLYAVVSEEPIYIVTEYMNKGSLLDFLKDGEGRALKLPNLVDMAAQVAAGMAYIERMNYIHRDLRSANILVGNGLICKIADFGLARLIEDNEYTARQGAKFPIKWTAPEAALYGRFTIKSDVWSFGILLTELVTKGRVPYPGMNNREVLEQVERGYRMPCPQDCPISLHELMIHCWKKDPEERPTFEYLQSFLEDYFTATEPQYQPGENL
- experiment-notes: phosphorylation enrichment, bacterial display (enrichment ratio); higher = better substrate or ligand; peptides without Tyr show the background
The response must contain the number and no unit.

> print(dat)
                     input.sequence  assay.value
1  RSFSPCDFQPC [TNS1_Y796_Y796C_YF]        0.783

**Q:** # query: phosphorylation enrichment of entry HDRNTYEKYLE [TF_Y666_G671E]
**A:** 0.856

**Q:** Can you check YETVKYINNER [ABCB7_Y345_F346I] next?
**A:** 1.22

**Q:** Can you check GEPLSYTRFSL [TFRC_Y20] next?
**A:** 0.443

**Q:** Can you check WRPFGYPRCRR [BCS1L_Y181_R184C] next?
**A:** 0.498

**Q:** Can you check YRIGPYQPNVP [MATR3_Y784] next?
**A:** 0.505

----------
Entries and their phosphorylation enrichment values follow.
- experimental-target: Hck (UniProt P08631)
- Sequence (P08631 whole entry, looked up): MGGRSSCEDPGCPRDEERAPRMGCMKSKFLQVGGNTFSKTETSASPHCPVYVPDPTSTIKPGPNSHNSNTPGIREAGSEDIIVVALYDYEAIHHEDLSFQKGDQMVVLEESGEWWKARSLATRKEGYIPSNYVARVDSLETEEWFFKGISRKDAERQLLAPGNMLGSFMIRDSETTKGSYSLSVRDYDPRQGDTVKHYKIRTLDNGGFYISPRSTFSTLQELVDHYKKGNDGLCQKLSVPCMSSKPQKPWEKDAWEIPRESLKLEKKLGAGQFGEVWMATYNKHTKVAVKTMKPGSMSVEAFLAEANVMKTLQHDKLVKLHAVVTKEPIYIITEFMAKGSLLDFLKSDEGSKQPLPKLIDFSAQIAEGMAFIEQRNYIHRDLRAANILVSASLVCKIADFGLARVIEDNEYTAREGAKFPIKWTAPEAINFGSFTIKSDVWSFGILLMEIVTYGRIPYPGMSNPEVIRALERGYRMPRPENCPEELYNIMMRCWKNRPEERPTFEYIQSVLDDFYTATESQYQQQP
- experiment-notes: phosphorylation enrichment, bacterial display (enrichment ratio); higher = better substrate or ligand; peptides without Tyr show the background
The response must contain the number and no unit.

> print(dat)
                        input.sequence        experimental.readout  assay.value
1              FIAVGYVDDTQ [HLA-A_Y51]  phosphorylation enrichment        0.509
2  TDKLFYIFTPG [SLC27A4_Y243_S247P_YF]  phosphorylation enrichment        0.607
3               ILGRYYETGSI [PAX2_Y73]  phosphorylation enrichment         0.49

**Q:** # query: phosphorylation enrichment of entry LYDPDFMKVIL [CYP4A22_Y104_Y104F]
**A:** 0.634

**Q:** Can you check TGEKLYQHKEF [ZNF283_Y627_R629H] next?
**A:** 0.495

----------
- experimental-target: FGFR3 (UniProt P22607)
- experiment-notes: phosphorylation enrichment, bacterial display (enrichment ratio); higher = better substrate or ligand; peptides without Tyr show the background
experimental-readout: phosphorylation enrichment
The response must contain the number and no unit.

# annotated cases, reported phosphorylation enrichment shown
> print(dat)
                     input.sequence     experimental.target  assay.value
1  CTTSHYNFMCN [TP53_Y234_I232S_YF]  FGFR3 (UniProt P22607)        0.637
2    LVRPPYSYLAL [FOXI1_Y126_S129L]  FGFR3 (UniProt P22607)         1.33
3          RELGEYGLQAY [ALDH2_Y497]  FGFR3 (UniProt P22607)        0.977

The record that follows has no phosphorylation enrichment shown yet.
**Q:** # query: phosphorylation enrichment of entry DDKQPYEKKAE [HMGB1_Y144_A149E]
**A:** 0.631

----------
- experimental-target: MERTK (UniProt Q12866)
- Sequence (Q12866 whole entry, looked up): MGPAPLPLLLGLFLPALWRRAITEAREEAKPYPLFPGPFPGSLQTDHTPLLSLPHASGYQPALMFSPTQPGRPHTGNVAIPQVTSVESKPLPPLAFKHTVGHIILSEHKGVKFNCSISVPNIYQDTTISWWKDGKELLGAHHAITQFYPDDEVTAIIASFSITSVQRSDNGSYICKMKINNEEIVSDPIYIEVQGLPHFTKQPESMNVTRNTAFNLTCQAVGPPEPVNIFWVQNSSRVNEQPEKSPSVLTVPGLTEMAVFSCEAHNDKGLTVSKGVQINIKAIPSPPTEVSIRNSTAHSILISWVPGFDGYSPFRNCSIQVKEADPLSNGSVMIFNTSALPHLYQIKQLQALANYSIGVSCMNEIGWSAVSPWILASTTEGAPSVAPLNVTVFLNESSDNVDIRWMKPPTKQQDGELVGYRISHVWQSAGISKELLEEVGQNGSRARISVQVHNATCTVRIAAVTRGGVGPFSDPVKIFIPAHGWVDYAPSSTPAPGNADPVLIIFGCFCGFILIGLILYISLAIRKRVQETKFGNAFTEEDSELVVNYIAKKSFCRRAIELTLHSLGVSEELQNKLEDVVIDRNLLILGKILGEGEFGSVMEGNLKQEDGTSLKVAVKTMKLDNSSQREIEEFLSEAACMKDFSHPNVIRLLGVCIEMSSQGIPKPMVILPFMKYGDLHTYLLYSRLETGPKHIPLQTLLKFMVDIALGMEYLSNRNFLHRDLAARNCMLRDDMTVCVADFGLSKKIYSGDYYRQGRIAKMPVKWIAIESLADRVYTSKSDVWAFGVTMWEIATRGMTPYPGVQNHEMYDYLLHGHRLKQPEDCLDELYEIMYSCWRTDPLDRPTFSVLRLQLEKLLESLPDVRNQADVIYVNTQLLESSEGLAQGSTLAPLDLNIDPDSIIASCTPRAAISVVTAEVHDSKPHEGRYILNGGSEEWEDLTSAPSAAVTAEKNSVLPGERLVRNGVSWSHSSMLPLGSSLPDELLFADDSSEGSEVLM
- experiment-notes: phosphorylation enrichment, bacterial display (enrichment ratio); higher = better substrate or ligand; peptides without Tyr show the background
experimental-readout: phosphorylation enrichment
The response must contain the number and no unit.

**Q:** # query: phosphorylation enrichment of entry RSDEDYLFREE [POR_Y573_YF]
**A:** 0.592

----------
Entries and their phosphorylation enrichment values follow.
- experimental-target: MERTK (UniProt Q12866)
- experiment-notes: phosphorylation enrichment, bacterial display (enrichment ratio); higher = better substrate or ligand; peptides without Tyr show the background
The response must contain the number and no unit.

# annotated cases, reported phosphorylation enrichment shown
> print(dat)
                   input.sequence  assay.value
1       NYADPYRQLQY [CTNND2_Y503]         2.57
2         QRDSSYYWEIE [RAF1_Y340]          3.5
3  MRALTYCDLHK [KCNH2_Y827_V822M]        0.365

**Q:** Please tell me: phosphorylation enrichment of PLQHVYKIGGI [EEF1A2_Y254_D252H] , system MERTK (UniProt Q12866)?
**A:** 0.739

**Q:** Can you check SEASFYKSLNL [NGEF_Y289_YF] next?
**A:** 0.471

**Q:** Can you check LKLWDYSRGRC [WDR5B_Y239] next?
**A:** 0.736

**Q:** Can you check CRAVKYLQMVD [AVPR2_Y117_G122D] next?
**A:** 0.354

**Q:** Can you check YNDSTYNQQLI [ZPLD1_Y198] next?
**A:** 0.435

**Q:** Can you check NSFKFYMSDDI [ATRX_Y204_C200S_YF] next?
**A:** 0.497
